These entries and their values trace back to ChEMBL document CHEMBL3638993.

- target: Dihydrofolate reductase (Homo sapiens, UniProt P00374)
- Sequence (P00374 whole entry): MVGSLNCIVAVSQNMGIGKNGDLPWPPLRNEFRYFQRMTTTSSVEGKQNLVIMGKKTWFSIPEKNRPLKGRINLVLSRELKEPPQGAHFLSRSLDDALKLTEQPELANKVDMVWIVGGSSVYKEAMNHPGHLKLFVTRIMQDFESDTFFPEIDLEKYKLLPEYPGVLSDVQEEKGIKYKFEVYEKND
reported-endpoint: pKi
# pKi: negative log10 of molar concentration; output just the value

Record request: pKi value, item Cc1c(C(=O)OC(C)(C)C)nc(-c2cccs2)n1-c1ccc2c(N)nc(N)nc2c1
5.72
